- Assay System: GK-GKRP (glucokinase / glucokinase regulatory protein) (Homo sapiens, UniProt Q14397)
- Sequence (Q14397 1-625): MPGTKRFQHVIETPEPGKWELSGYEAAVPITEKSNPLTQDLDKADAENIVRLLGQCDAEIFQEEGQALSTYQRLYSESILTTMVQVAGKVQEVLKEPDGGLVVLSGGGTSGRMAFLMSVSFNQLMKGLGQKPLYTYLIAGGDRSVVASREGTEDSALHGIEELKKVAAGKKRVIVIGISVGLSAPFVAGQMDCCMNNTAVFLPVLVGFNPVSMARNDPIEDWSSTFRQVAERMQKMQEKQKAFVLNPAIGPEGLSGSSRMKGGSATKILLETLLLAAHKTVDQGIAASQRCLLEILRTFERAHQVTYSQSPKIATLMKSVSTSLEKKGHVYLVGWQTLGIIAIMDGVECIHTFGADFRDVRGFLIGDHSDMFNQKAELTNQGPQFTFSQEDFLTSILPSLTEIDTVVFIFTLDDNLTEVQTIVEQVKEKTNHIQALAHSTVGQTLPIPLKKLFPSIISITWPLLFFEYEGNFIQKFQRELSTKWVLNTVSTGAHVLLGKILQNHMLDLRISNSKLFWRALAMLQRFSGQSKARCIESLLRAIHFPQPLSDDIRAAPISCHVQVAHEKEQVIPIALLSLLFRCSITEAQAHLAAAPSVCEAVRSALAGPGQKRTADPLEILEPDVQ
- Assay Explanation: GKRP LC MS/MS Biochemical Assay (LCMS/MS)
- Measurement Conditions: formation of 13C-glucose-6-phosphate from 13C-glucose by LC MS/MS, human His-hepatic GK, fructose-6-phosphate
Property Measured: EC50 (nM)

I. O=S(=O)(NC(c1ccccc1)c1nc2ccccc2o1)c1ccc2c(c1)OCCCO2 (racemic)
II. O=S(=O)(N[C@@H](c1cc2ccccc2o1)c1ccccc1Br)c1ccc2c(c1)OCCCO2 (single isomer, unassigned) [Example 22 Peak #2]
stdin: Hi, I'm comparing two records. Which one has the lower EC50, I or II ? Use the label to indicate which entry you chose.
stdout: II
